# protocol_text: passive permeability, PAMPA, ADME assay (AID 1508612)
# condition_set: pH 7.4, 30.0 min, 50.0 µM
molecules and their reported Papp
Answer in ×10⁻⁶ cm/s, number only, no unit symbol.

Consider the worked cases shown below.
Value of measured Papp for the entry NC(=O)COCCN1CCN(C(c2ccccc2)c2ccc(Cl)cc2)CC1 (configuration not stated) : 359

Entry CS(=O)(=O)c1ccc(-c2cnc(NCc3ccco3)n3cnnc23)cc1 — recorded Papp = 16.7

Value of measured Papp for the entry CCOc1cc(=O)n2c(c1C(=O)Nc1cc(OC)c(Cl)cc1OC)CCCC2 : 96.6

Others:
# molecule CNC(=O)c1ccc(C)c(-n2c(C)cc(OCc3ccc(F)cc3F)c(Br)c2=O)c1 ; its Papp = 695

Documented Papp of COc1c2c(c3c(c1CCC(=O)O)OC(C)(C)C=C3)OC(C)(C)C=C2 : 43.9

Entry Cc1noc(-c2cn(C3CCN(C(=O)c4ccc(OC(F)(F)F)cc4)CC3)nn2)n1 ; Papp = 10.2

----------
# Papp per entry
# protocol_text: passive permeability, PAMPA, ADME assay (AID 1508612)
# condition_set: pH 7.4, 30.0 min, 50.0 µM
Your answer is read as ×10⁻⁶ cm/s, so omit the unit and give the number.

# compound O=S(=O)(Nc1nccs1)c1ccc(NCc2ccccc2)cc1 ; its Papp = 320

Reported Papp of CC1=C[C@@H](CN2C(=O)C(C)=C(C)C2=O)[C@H](C(C)C)C[C@H]1Cc1nc2c(C)cccc2[nH]1 : 585

Lab note: NC(=O)C1CCN(c2nc(-c3ccc4occc(=O)c4c3)cs2)CC1 gave Papp of 106

Measured Papp of Cc1nn(Cc2ccc(Cl)cc2)c(C)c1NC(=O)c1cc(-c2ccc3c(c2)OCO3)on1 : 836

Lab note: measured Papp of COc1cc(NC(=O)c2nc3ccccc3n(C)c2=O)cc(OC)c1OC was 145

***
Please fill in: Papp reported for O=C1NC(=O)C(c2cnc3ccccn23)=C1c1cn2c3c(cccc13)CN(C(=O)N1CCOCC1)CC2 = 82.9

Query NC(=O)C1CCN(c2ncc(-c3cccc(F)c3)s2)CC1 yields Papp of 896

----------
# protocol_text: passive permeability, PAMPA, ADME assay (AID 1508612)
# condition_set: pH 7.4, 30.0 min, 50.0 µM
property: Papp

Solved entries (count: 3):
CC(=O)c1ccc(N2CCN(c3ccc(NC(=O)c4ccc(F)cc4)cc3C(=O)O)CC2)cc1 yielded Papp of 156 ×10⁻⁶ cm/s

For record CCN1CCc2c(sc(NC(=O)Nc3ccc(Cl)c(Cl)c3)c2C(N)=O)C1 the listed Papp is 435 ×10⁻⁶ cm/s

Sample Cc1ccc(-c2cc(C(=O)NC3CCCCC3)c3ccccc3n2)cc1 ; Papp observed: > 1000 ×10⁻⁶ cm/s

***
Query CCOC(=O)c1ccc(NC(=O)c2sc3nc4c(cc3c2N)N2CCC4CC2)cc1 yields Papp of 928 ×10⁻⁶ cm/s

Query NC(=O)C1CCN(c2ncc(-c3ccc(Cl)cc3)s2)CC1 yields Papp of 714 ×10⁻⁶ cm/s

Entry CC(=O)c1c(C)[nH]c(C(=O)Nc2ccc(OCCCN(C)C)c(S(=O)(=O)Nc3ccc(Br)cc3)c2)c1C , Papp reported as 74.7 ×10⁻⁶ cm/s

Form field Papp, entry COc1ccccc1Nc1ccnc(N2CCN(C(=O)c3ccccc3Cl)CC2)n1 : 173 ×10⁻⁶ cm/s

Lab book: Papp of Cc1cccc(-n2cnc3cc(C(=O)N4CCCC(C(F)(F)F)C4)ccc32)c1 (stereo not given) noted as > 1000 ×10⁻⁶ cm/s

Entry under test: Nc1nc(N)c2cc(Sc3ccc4ccccc4c3)ccc2n1 . Its Papp was 461 ×10⁻⁶ cm/s

The reported Papp of the compound O=C1CCCC2=C1C(c1[nH]ncc1Cl)N=C(Nc1nc3ccccc3o1)N2 (stereo not given) was 718 ×10⁻⁶ cm/s

----------
Measured Papp, listed per entry.
# protocol_text: passive permeability, PAMPA, ADME assay (AID 1508612)
# condition_set: pH 7.4, 30.0 min, 50.0 µM
Write down the numeric answer in ×10⁻⁶ cm/s and omit the unit.

Short answer for CCOC(=O)c1ccc(N2C(=O)c3n[nH]c(-c4cccs4)c3C2c2ccc(Cl)cc2Cl)cc1 (stereo not given) : Papp was 85.8

The reported value for N#Cc1ccccc1S(=O)(=O)Nc1cnccc1C(=O)Nc1nc(-c2ccccc2)cs1 in terms of Papp is 61.8

Papp measured on N#Cc1ccc(N2N=C3c4ccc(C(=O)O)cc4CC[C@@H]3[C@@H]2C2CCCC2)cc1Cl = 272

***
// field: Papp; key: Cc1cccc(S(=O)(=O)Nc2cnccc2C(=O)Nc2nc(-c3ccccc3)cs2)c1 ; value = 860

----------
# protocol_text: passive permeability, PAMPA, ADME assay (AID 1508612)
# condition_set: pH 7.4, 30.0 min, 50.0 µM
Here, each record is paired with measured Papp data.
# output: bare number, implied unit ×10⁻⁶ cm/s

The measured Papp associated with Cc1ccccc1C(=O)N1CCc2cc(-c3nc(NC(=O)Cc4ccc5c(c4)OCO5)sc3C)ccc21 reads 23.9

# Papp of NC(=O)C1CCN(c2nc(-c3ccccc3N)cs2)CC1 = 136

The molecule listed as O=C(Cc1ccc(Cl)c(Cl)c1)Nc1ccc(S(=O)(=O)Nc2cccc(O)c2)cc1 shows Papp equal to 15.6

Record summary for Cc1c(Cl)cccc1NC(=O)CNS(=O)(=O)c1cccs1 : reported Papp = 115

Summary for this molecule, COc1ccc(Nc2nnc(-c3ccc(C)c(S(=O)(=O)NCc4nc5ccccc5[nH]4)c3)c3ccccc23)cc1 : Papp is 11.9

Value of measured Papp for the entry COc1ccc(-n2nc(C3CCCN(C(=O)c4ccc(C)cc4)C3)[nH]c2=O)cc1 (stereo unspecified) : 685

Further cases:
get_value(item= COc1cccc(CNC(=O)CCCn2nc(C)c3c(C)n(-c4ccc(C)cc4)nc3c2=O)c1OC , readout=Papp) returns 619

Entry Nc1ncc(S(=O)(=O)N2CCOCC2)s1 ; Papp = 15.5

----------
# protocol_text: passive permeability, PAMPA, ADME assay (AID 1508612)
# condition_set: pH 7.4, 30.0 min, 50.0 µM
Please enter condition met where Papp is greater than or equal to 300 ×10⁻⁶ cm/s, and condition not met where it is lower.

Tell me whether Papp is at least 300 ×10⁻⁶ cm/s here: Cc1c(-c2cccc(NC(=O)c3ccc(F)c(F)c3)c2)nc2ncccn12
condition met

Decide: is the reported value of Papp for COc1cccc(CNc2ccc(S(=O)(=O)Nc3cccc4ccccc34)cc2)c1O equal to or greater than 300 ×10⁻⁶ cm/s?
condition not met

Kindly determine if Papp recorded for Clc1cccc(Nc2nc(-c3ccncc3)nc3ccccc23)c1 is above or exactly 300 ×10⁻⁶ cm/s.
condition not met

Next:
Check if Papp >= 300 ×10⁻⁶ cm/s (inclusive). Item: O=C(NC1CCCN(c2cc(-c3ccc(F)cc3)[nH]n2)C1)c1ccc2ncccc2c1 (stereo unspecified)
condition not met

Say whether CCN(CC)C(=O)c1coc(COc2ccc3c(c2)C(c2cccc(F)c2)N(C(=O)C(C)C)CC3)n1 (stereo unspecified) shows Papp of 300 ×10⁻⁶ cm/s or more.
condition met

Please indicate if the recorded Papp for NC(=O)C1CCN(c2ncc(-c3ccc4c(c3)OCO4)s2)CC1 meets or exceeds 300 ×10⁻⁶ cm/s.
condition met

Decide: Papp of CCOc1ccc(CCNC(=O)c2cc3cnccc3n2Cc2cccc(C)c2)cc1OCC >= 300 ×10⁻⁶ cm/s?
condition not met

Entry CC(=O)Nc1cccc(Nc2nc3ccccc3n3c(C)nnc23)c1 : is its Papp no less than 300 ×10⁻⁶ cm/s?
condition not met

Say whether COc1ccc(-n2c(C)cc(-c3nnc4n3CCCCC4)c2C)cc1 shows Papp of 300 ×10⁻⁶ cm/s or more.
condition met

Does Papp meet or surpass 300 ×10⁻⁶ cm/s for O=C(Nc1cccnc1)c1cccs1 ?
condition not met

Reported Papp reaches at least 300 ×10⁻⁶ cm/s for CCCCCCCc1c(C)nc(N2CCOCC2)[nH]c1=O ?
condition met

----------
# protocol_text: passive permeability, PAMPA, ADME assay (AID 1508612)
# condition_set: pH 7.4, 30.0 min, 50.0 µM
property: Papp (×10⁻⁶ cm/s)
State just the number; it will be interpreted in ×10⁻⁶ cm/s.

Answered examples (2):
Reported Papp ( O=[S+]([O-])(Nc1ccc(C2CCNCC2)cc1)c1ccc(NCc2ccc(Cl)cc2O)cc1 ) = 2.21

Record summary for CNc1nccc(-c2cccc3ccccc23)n1 : reported Papp = 905

---
Record summary for Fc1ccc(Nc2nc(-c3ccncc3F)nc3ccccc23)cc1F : reported Papp = 325

----------
# protocol_text: passive permeability, PAMPA, ADME assay (AID 1508612)
# condition_set: pH 7.4, 30.0 min, 50.0 µM
Use 200 ×10⁻⁶ cm/s as the dividing line for Papp, with the line itself on the MET side and lower values as NOT MET.

Please review the following examples before continuing.
Hi, just wondering whether CCc1cccc(NC(=O)c2cc(-c3ccc[nH]3)n[nH]2)c1 shows Papp of 200 ×10⁻⁶ cm/s or higher.
NOT MET

hey, is Papp for this one >= 200 ×10⁻⁶ cm/s? Nc1ccc(S(=O)(=O)Nc2cnccc2C(=O)Nc2nc(-c3ccccc3)cs2)cc1
NOT MET

Papp >= 200 ×10⁻⁶ cm/s for COc1cccc(CNc2ccc(S(=O)(=O)Nc3nccs3)cc2)c1N ?
NOT MET

More entries:
Could you please find out whether CC(=O)c1c(C)[nH]c(C(=O)Nc2cccc([S+](=O)([O-])N3CCC(F)(F)CC3)c2)c1C has Papp that meets 200 ×10⁻⁶ cm/s or exceeds it?
MET

Form field: Papp at least 200 ×10⁻⁶ cm/s? Entry: O=c1ncn2nc(Sc3ccc(F)cc3F)ccc2c1-c1c(Cl)cccc1Cl
MET

// inclusive: Papp at least 200 ×10⁻⁶ cm/s? input: COc1ccc(-n2nc(C3CCN([S+](=O)([O-])c4cccc(C(F)(F)F)c4)CC3)[nH]c2=O)cc1
MET

Decide: Papp of FC(F)(F)c1cc(-c2ccc(CNc3nc(-c4ccccc4C(F)(F)F)nc4ccsc34)cc2)ccn1 >= 200 ×10⁻⁶ cm/s?
MET

Has CCOC(=O)C1CCN(C(=O)C2(NC(=O)Nc3ccccc3Cl)CCCC2)CC1 a recorded Papp greater than or equal to 200 ×10⁻⁶ cm/s?
MET

Entry Cc1c(C(=O)NN2CCCCC2)nn(-c2ccc(Cl)cc2Cl)c1-c1ccc(Cl)cc1 : is its Papp no less than 200 ×10⁻⁶ cm/s?
MET

Where these numbers come from: PubChem BioAssay AID1508612
